The following molecules are listed with their measured growth values.
Tested on: SF-539 CNS
Test: NCI-60 one-dose screen, 48 h (100 = growth as untreated, 0 = no growth, -100 = all killed)
Conditions: 10 µM unless noted
The panel holds about 83,000 compounds, 20% with a hit somewhere; the sample as a whole holds those more often.

MOLECULE	growth (%)
CCCCCC(=O)OCc1ccccc1	98.8
COc1ccc2c(c1)C=CC(C#N)N2C(=O)c1ccccc1 (configuration not stated)	-21.2
NC(N)=NC(N)=Nc1ccccc1-c1ccccc1	110
NC(=O)c1c(NC(=O)c2ccc(OCC3CCCO3)cc2)sc2c1CCCC2 (configuration not stated)	100
Cc1nc(Nc2cccnc2)sc1C(=O)/C=C/c1ccc(Cl)cc1	-14.5
COc1cccc(-n2cc(-c3nc(Cl)c4ccccc4n3)nn2)c1	108
COc1ccc(/C=N/NC(=O)Cn2c(Cc3cccc4ccccc34)nc3ccccc32)cc1	90.7
COC1=CC(c2ccc[nH]2)=N/C1=C\c1[nH]c(C)c(C(=O)CCCCC(=O)NCc2ccccc2)c1C	56.6
COc1ccc(-c2nc(-c3ccccc3)c(-c3ccccc3)n2C2CC2)cc1OC1CCCCC1	81
COc1cc(NC(=O)c2cc3ccccc3nc2Nc2ccc(F)cc2)cc(OC)c1OC	40.5
O=C(CNC1CCCCC1)Nc1ccc(-c2nc3ccccc3s2)cc1	87.5
COc1ccc(/C=C/C(=O)c2ccc(NC(=O)CN3CCN(c4cc5c(cc4F)c(=O)c(C(=O)O)cn5C4CC4)CC3)cc2)cc1	108
c1cc(-c2ccc3c(c2)OCO3)n2nccc2n1	89.1
COc1ccc(OC)c(-c2ccc(-c3ccccc3N)c3[nH]c4ccccc4c23)c1	93.2
COc1cc(-c2csc(NC(=O)c3cc(C(F)(F)F)cc(C(F)(F)F)c3)n2)cc(OC)c1OC	56
NC(C(=O)O)C(O)c1ccc(OCc2ccccc2)c(OCc2ccccc2)c1 (configuration not stated)	97.2
Nc1c(C(=O)Nc2ccccc2)sc2nc3c(cc12)CCC3	80.2
CCc1cccc(C)c1NC(=O)c1sc2nc3c(cc2c1N)C(=O)CCC3	-14.4
Cc1cc(C)c2c(=O)[nH]c(SCC(=O)Nc3cccc(S(=O)(=O)N(C)C)c3)nc2n1	97.3
COc1ccc(/C=C2\CCCC3=C2NC(C)=NC3c2ccc(OC)c(OC)c2)cc1OC (configuration not stated)	17.1
CC(C)C(C(=O)CCN(C)C)c1ccc(Cl)cc1 (configuration not stated)	103
Cc1cccc(NC(=O)c2sc3nc4c(cc3c2N)CCC4)c1C	1.33
NC(=O)c1cccc(N2Cc3ccccc3OC3=C2C(=O)c2c(O)ccc(O)c2C3=O)c1	-49.3
COc1ccc(OC)c(C(=O)c2oc3ccc(Br)cc3c2N)c1	-44.4
Cc1sc(N=Nc2ccc(N(C)C)cc2)[n+]([O-])c1C	100
COc1ccc(NC(=S)/N=c2\oc3c(OC)cccc3cc2-c2cc3ccccc3[nH]2)cc1	26.4
N#Cc1c(NC(=O)c2ccc([N+](=O)[O-])o2)[n+]([O-])c2cc(F)c(F)cc2[n+]1[O-]	137
CN(C)c1ccc(/C=C\N=Nc2ccc(Br)cc2)cc1	5.55
CC(C)CCC[C@@H](C)[C@H]1CC[C@H]2[C@@H]3CC[C@H]4C/C(=N/O)CC[C@]4(C)[C@H]3CC[C@]12C	109
COc1ccc(C2CC(=O)Nc3c2c(C)nn3-c2nc3ccccc3[nH]2)cc1OC (configuration not stated)	97.7
COc1cc(-c2cc(/C=C3\CCCCC3=O)[nH]n2)cc(OC)c1OC	103
Nc1c(C(=O)Nc2ccccc2)sc2nc3c(cc12)CN(Cc1ccccc1)CC3	12.6
Nc1cccc2c1CN(C1CCC(=O)NC1=O)C2=O (configuration not stated)	94.7
CCN1C(=S)N(CC)C2Nn3c(s/c(=C4\C(=O)N(C)c5ccccc54)c3=O)=NC21 (configuration not stated)	6.07
CNC(=O)Cc1nc(-c2cccc(NS(=O)(=O)c3c(F)cccc3F)c2F)c(-c2ccnc(Nc3ccccc3)n2)s1	68.9
CCOC(=O)C1=C(CSC(=S)N(C2CCCCC2)C2CCCCC2)N(C)C(=O)NC1c1ccccc1 (configuration not stated)	71.6
CCOC(=O)C1=C(C)NC(=O)NC1c1ccc(OCC(=O)N/N=C/c2ccc(Cl)cc2)cc1 (configuration not stated)	91.3
Nc1nc(N)c2nc(CNc3ccc(C(=O)CC(CCC(=O)O)C(=O)O)cc3)cnc2n1 (configuration not stated)	20.5
COc1ccc(/C(=N/O)c2cc(F)c(F)c(OC)c2F)cc1O	-22.8
COc1ccc(C(=O)N2CCN(C(=O)c3cc(OC)c(OC)c(OC)c3)CC2)cc1OCCCCOc1cc2c(cc1OC)C(=O)N1CCC[C@H]1C=N2	98.9
COc1cc(NCCN=C(N)NC(N)=NC(C)C)c2ncccc2c1	6.08
CCOc1ccc(/C=C/C=N/NC(N)=S)cc1	74.3
